tested target: Mannose-6-phosphate isomerase (Homo sapiens) (UniProt P34949)
Sequence (P34949 whole entry, looked up): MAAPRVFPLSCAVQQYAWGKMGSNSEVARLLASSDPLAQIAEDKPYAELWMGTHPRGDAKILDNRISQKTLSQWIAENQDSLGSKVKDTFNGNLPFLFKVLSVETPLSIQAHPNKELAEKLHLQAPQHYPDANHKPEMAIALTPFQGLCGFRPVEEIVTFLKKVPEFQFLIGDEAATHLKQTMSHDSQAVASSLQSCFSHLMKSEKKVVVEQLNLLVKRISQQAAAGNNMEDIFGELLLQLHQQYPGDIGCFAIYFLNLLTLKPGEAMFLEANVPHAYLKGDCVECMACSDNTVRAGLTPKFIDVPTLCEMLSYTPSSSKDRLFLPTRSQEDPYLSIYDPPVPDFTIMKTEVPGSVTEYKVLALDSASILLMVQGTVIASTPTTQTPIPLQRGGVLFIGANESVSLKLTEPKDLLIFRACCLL
experimental protocol: inhibitors of human PMI, primary screen, biochemical, fluorescence intensity, coupled assay (AID 1209);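 note: plate controls were DMSO vehicle for no effect and wells lacking substrate for full effect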
assay conditions: purified PMI enzyme, at 20 µM, hits give high values
The campaign covered roughly 190,000 compounds. About 810 (0.43%) were called active. The entries come from a sample that favours actives as a whole.
measurement name: inhibition (%)
Response body: numeric value in %, unit text excluded.

Field: example entries. Status: answers known.
O=C(NC1CCCCCC1)C(=S)N1CCOCC1	61.8
CN=c1scc(-c2ccco2)n1/N=C/c1ccc(O)c(O)c1	53
O=c1c(-c2ccc(O)cc2)coc2cc(OC3OC(CO)C(O)C(O)C3O)ccc12 (stereo not given)	-7.2
COc1ccc(C2NC(=O)NC3=C2CCc2ccccc23)cc1 (stereo not given)	70.7
CC(C)(C)c1ccc(C(=O)NNC(=S)NCC2CCCO2)cc1 (stereo not given)	-0.9
COc1cc2c(=O)c(-c3ccc(O)cc3)coc2cc1OC1OC(CO)C(O)C(O)C1O (stereo not given)	3.2
CCC1C(=O)N(C)CCc2ccccc21 (stereo not given)	-5.7
NC(=O)C1=C[C@H](c2coc3ccccc3c2=O)C[C@H](OCc2ccc(CO)cc2)O1	-2.4
O=c1c(O[C@@H]2O[C@H](CO)[C@@H](O)[C@H](O)[C@H]2O)c(-c2ccc(O)c(O)c2)oc2cc(O)cc(O)c12	62.8

Now, please, on to the next molecule.
Input line: Consider the molecule shown here: `CCN=c1scc(-c2ccco2)n1/N=C/c1ccc(O)cc1` What is its recorded inhibition?
Output line: -4.3

====

tested target: Mannose-6-phosphate isomerase (Homo sapiens) (UniProt P34949)
experimental protocol: inhibitors of human PMI, primary screen, biochemical, fluorescence intensity, coupled assay (AID 1209);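 note: plate controls were DMSO vehicle for no effect and wells lacking substrate for full effect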
assay conditions: purified PMI enzyme, at 20 µM, hits give high values
Among all 190,000 compounds or so, about 810 (0.43%) were called active. This is one part of a sample in which actives are shown more often than they occur.
As shown below, each of these compounds has a reported inhibition value.
Response body: numeric value in %, unit text excluded.

CCCC(C(=O)O)N1C(=O)/C(=C2\C(=O)N(C)c3ccccc32)SC1=S (stereo not given)	16.5

Input line: Consider the compound shown here: `CCCC(=O)N1c2ccccc2C(=C2SC(C(=O)OC)=C(C(=O)OC)S2)C(=S)C1(C)C` What is its recorded inhibition?
Output line: 62.1

Input line: Consider the compound shown here: `C/C=C/C(=O)N1c2ccccc2C(C)=CC1(C)C` What is its recorded inhibition?
Output line: -2.5

Input line: Consider the compound shown here: COC(=O)C1=NN(c2ccccc2)C2(S1)SC(C(C)=O)=C(C)N2c1ccccc1 (stereo not given) What is its recorded inhibition?
Output line: 9.2

Input line: Consider the compound shown here: `COC(=O)C1=C(C(=O)OC)SC(=C2C(=S)C(C)(C)N(C(=O)C3CC3)c3ccccc32)S1` What is its recorded inhibition?
Output line: 71.6

====

tested target: Mannose-6-phosphate isomerase (Homo sapiens) (UniProt P34949)
experimental protocol: inhibitors of human PMI, primary screen, biochemical, fluorescence intensity, coupled assay (AID 1209);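 note: plate controls were DMSO vehicle for no effect and wells lacking substrate for full effect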
assay conditions: purified PMI enzyme, at 20 µM, hits give high values
Among all 190,000 compounds or so, about 810 (0.43%) were called active. This is one part of a sample in which actives are shown more often than they occur.
measurement name: inhibition (%)
Response body: numeric value in %, unit text excluded.

CN1C=C/C(=C\c2cc[n+](C)c3ccccc23)c2ccccc21	59.2
O=C(Nc1ccccc1)c1sccc1Oc1ccc([N+](=O)[O-])cc1F	-6
CCN(CC)c1ccc(/C=N/NC(=O)Cc2cccs2)cc1	15.6
O=C(C1CCN(Cc2ccccc2)CC1)N1CCCC1	-5.2
COc1cc(C2C3=C(CC(C)(C)CC3=O)OC3=C2C(=O)CC(C)(C)C3)cc([N+](=O)[O-])c1O	0.1
Cc1ccc(-c2nc3ncccc3o2)cc1NC(=O)COc1ccccc1	3.5

Input line: Consider the compound shown here: `COc1cccc(C=Nc2cc(C)cc(C)c2)c1O` What is its recorded inhibition?
Output line: -1.7

Input line: Consider the compound shown here: `Cc1ccc(NC(=O)c2ccc(N/N=C/c3cccc(O)c3)c([N+](=O)[O-])c2)cc1` What is its recorded inhibition?
Output line: 5.1

Input line: Consider the compound shown here: `CC(=O)c1cc(NC(=O)c2ccc([N+](=O)[O-])cc2)c(=O)oc1C` What is its recorded inhibition?
Output line: -41

Input line: Consider the compound shown here: `Cc1ccc(OCC(=O)Nc2ccc(-c3nc4ncccc4o3)cc2)c(C)c1` What is its recorded inhibition?
Output line: 97.8

Input line: Consider the compound shown here: `O=C(CN1CCN(Cc2ccccc2)CC1)N1CCCCCC1` What is its recorded inhibition?
Output line: 60.7

Input line: Consider the compound shown here: CCC(=O)Nc1ccccc1-c1nnn(CC(=O)N2c3ccccc3CC2C)n1 (stereo not drawn) What is its recorded inhibition?
Output line: 13

Input line: Consider the compound shown here: `N#CC(=C1CCCC1)c1nc(-c2cc3ccccc3oc2=O)cs1` What is its recorded inhibition?
Output line: 1.4

Input line: Consider the compound shown here: `CC[n+]1ccc(/C=C2\Sc3ccccc3N2CCCS(=O)(=O)[O-])c2ccccc21` What is its recorded inhibition?
Output line: 8.2

Input line: Consider the compound shown here: `CN(Cc1cccnc1)C(=O)CNC(=O)c1ccc(Cl)cc1Cl` What is its recorded inhibition?
Output line: -2.4

Input line: Consider the compound shown here: COc1ccc(OC)c(NC2c3ccccc3C(=O)N2c2cccnc2)c1 (stereo not drawn) What is its recorded inhibition?
Output line: -11.1

Input line: Consider the compound shown here: `O=C(COC(=O)/C=C/c1ccc([N+](=O)[O-])cc1)NC(c1ccccc1)c1ccccc1` What is its recorded inhibition?
Output line: 13

Input line: Consider the compound shown here: O=C(O)CC(NC(=O)COc1ccc(Cl)cc1Cl)C(=O)O (stereo not drawn) What is its recorded inhibition?
Output line: 4.9

====

tested target: Mannose-6-phosphate isomerase (Homo sapiens)
experimental protocol: inhibitors of human PMI, primary screen, biochemical, fluorescence intensity, coupled assay (AID 1209);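 note: plate controls were DMSO vehicle for no effect and wells lacking substrate for full effect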
assay conditions: purified PMI enzyme, at 20 µM, hits give high values
The campaign covered roughly 190,000 compounds. About 810 (0.43%) were called active. This excerpt belongs to a sample that is enriched for actives.
measurement name: inhibition (%)
Response body: numeric value in %, unit text excluded.

COc1cc(CNc2ccc(N3CCN(C(C)=O)CC3)cc2)ccc1OCc1ccccc1	20
CCOc1c(Cl)cc(CNc2ccc(S(N)(=O)=O)cc2)cc1OC	-1.5
COc1cc(CC(=O)OCC(=O)Nc2cc([N+](=O)[O-])ccc2F)cc(OC)c1OC	2.7
O=C(C1CCN(S(=O)(=O)c2cccc3nsnc23)CC1)N1CCn2c1nc1ccccc12	8.5

Input line: Consider the compound shown here: `CCOc1cc(CNc2ccc(N3CCCC3)cc2)cc(Cl)c1OC` What is its recorded inhibition?
Output line: 83

Input line: Consider the compound shown here: CCC(O)c1c(-c2ccccc2)nn(C)c1Cl (centres undefined) What is its recorded inhibition?
Output line: 1.3

Input line: Consider the compound shown here: `Cc1ccc2c(c1)n([O-])c1c([n+]2=O)CCCC1` What is its recorded inhibition?
Output line: 17.7

Input line: Consider the compound shown here: CC1CCCN(CCC(=O)c2ccc(Br)cc2)C1 (centres undefined) What is its recorded inhibition?
Output line: 60.1

Input line: Consider the compound shown here: `O=C(CCN1CCN(c2ccccc2F)CC1)c1ccc(Br)cc1` What is its recorded inhibition?
Output line: 59.8

Input line: Consider the compound shown here: `O=C(CCN1CCOCC1)c1ccc(Cl)cc1` What is its recorded inhibition?
Output line: 25.9

Input line: Consider the compound shown here: `Cc1ccc(NC(=O)NC(=O)N(C(C)C)S(C)(=O)=O)nc1` What is its recorded inhibition?
Output line: -7.9

Input line: Consider the compound shown here: `COc1ccc(C(=O)c2cnc(/N=C/N(C)C)s2)cc1` What is its recorded inhibition?
Output line: 14.2

Input line: Consider the compound shown here: `COc1cc(CNc2ccc(N3CCCC3)cc2)ccc1OCc1ccccc1` What is its recorded inhibition?
Output line: 86.4

Input line: Consider the compound shown here: `CCOc1ccc(OCC(=O)OCn2c(SC)nnc(C)c2=O)cc1` What is its recorded inhibition?
Output line: 15.9

Input line: Consider the compound shown here: `CCOc1c(Cl)cc(CNC(C)(C)CC(C)(C)C)cc1OC` What is its recorded inhibition?
Output line: 4.6

Input line: Consider the compound shown here: Cc1ccccc1NC(=O)C(NS(=O)(=O)c1ccc2c(c1)c(=O)n(C)c(=O)n2C)c1ccccc1 (centres undefined) What is its recorded inhibition?
Output line: -1.4

Input line: Consider the compound shown here: `Cc1cc(OCC(=O)NCc2ccncc2)ccc1Cl` What is its recorded inhibition?
Output line: 1

Input line: Consider the compound shown here: `O=c1sc2ccccc2c(=O)n1Cc1ccccc1F` What is its recorded inhibition?
Output line: 89.5

Input line: Consider the compound shown here: `O=C(CCN1CCOCC1)c1ccccc1` What is its recorded inhibition?
Output line: -1.6

Input line: Consider the compound shown here: `O=C(c1ccc(F)cc1)c1c[nH]c(C(=O)NCCCN2CCOCC2)c1` What is its recorded inhibition?
Output line: 4.5

Input line: Consider the compound shown here: `CCOc1ccccc1CN1CCN(S(=O)(=O)CC)CC1` What is its recorded inhibition?
Output line: 3.5

Input line: Consider the compound shown here: `CCOc1ccc2c(c1)n([O-])c1c([n+]2=O)CCCC1` What is its recorded inhibition?
Output line: 56.8

Input line: Consider the compound shown here: CCN1C(=O)C2(C(C#N)=C(N)Oc3cc(C)oc(=O)c32)c2ccccc21 (centres undefined) What is its recorded inhibition?
Output line: 5.6

Input line: Consider the compound shown here: `O=C(CCN1CCOCC1)c1ccc(Br)cc1` What is its recorded inhibition?
Output line: 60.4
